- Species on record: Rattus norvegicus
- Protocol details: DrugMatrix - Regimen: Daily Repeat
- Assay type: toxicity, organism-based, Sprague-Dawley
- Parameters: regimen Daily Repeat, gender Male, age 6-8 weeks
- Run conditions: in vivo, sc, 0 mg/kg, 72 h, tissue Blood, route subcutaneous, dose level Control, time 3 day, […]
Hi there, I'd appreciate the recorded PLATELET COUNT for every entry that follows.
One number for each entry, in x10E3/uL.

Example compounds with recorded PLATELET COUNT:
Asked: Report measured PLATELET COUNT; entry is CCC(=O)O[C@]1(C(=O)CCl)[C@@H](C)C[C@H]2[C@@H]3CCC4=CC(=O)C=C[C@]4(C)[C@@]3(F)[C@@H](O)C[C@@]21C [CLOBETASOL PROPIONATE]
Given back: 1180.33

Asked: Give the reported PLATELET COUNT for this compound. CC(C)(C)CC(C)(C)c1ccc(OCCOCC[N+](C)(C)Cc2ccccc2)cc1.[Cl-] [BENZETHONIUM CHLORIDE]
Given back: 1174

Asked: Give PLATELET COUNT for the following compound: Oc1c(Cl)cc(Cl)c(Cl)c1Cc1c(O)c(Cl)cc(Cl)c1Cl [HEXACHLOROPHENE]
Given back: 1174

Asked: Please give the documented PLATELET COUNT of CCN(CC)CCOCCC1=CCC2CC1C2(C)C (stereo not given) [MYRTECAINE]
Given back: 1142

Let's switch to this compound now.
Asked: Annotate the compound O=C(Nc1ccc(Br)cc1)c1cc(Br)cc(Br)c1O [TRIBROMSALAN] with its measured PLATELET COUNT.
Given back: 1180.33
